Entry source: patent US9326506B2

System: rice
test summary: Low temperature assay on rice seedlings
Assay type: in vivo
measurement conditions: 0.01 mg/l, 5 °C, 3 days
observable: Weight of root (g)
Express the result in g but write the number alone.

The following compounds have reported results that may help.
compound | result unit | Weight of root
CC(C)C[C@@H](O)[C@H](O)[C@@H](C)[C@H]1CCC2C3CC(=O)C4C[C@H](O)[C@H](O)C[C@]4(C)C3CC[C@@]21C (stereo partly drawn) [BR5] | g | 2.8
CC[C@@H](C(C)C)[C@@H](O)[C@H](O)[C@@H](C)[C@H]1CCC2C3COC(=O)C4C[C@H](O)[C@H](O)C[C@]4(C)C3CC[C@@]21C (stereo partly drawn) [BR2] | g | 2.8
C=C(C(C)C)[C@@H](O)[C@H](O)[C@@H](C)[C@H]1CCC2C3COC(=O)C4C[C@H](O)[C@H](O)C[C@]4(C)C3CC[C@@]21C (stereo partly drawn) [BR3] | g | 2.8
CC(C)[C@H](C)[C@@H](O)[C@H](O)[C@@H](C)[C@H]1CCC2C3CC(=O)C4C[C@H](O)CC[C@]4(C)C3CC[C@@]21C (stereo partly drawn) [BR4] | g | 2.8
CC(C)[C@H](C)[C@@H](O)[C@H](O)[C@@H](C)[C@H]1CCC2C3COC(=O)C4C[C@H](O)[C@H](O)C[C@]4(C)C3CC[C@@]21C (stereo partly drawn) [BR1] | g | 2.8

State its Weight of root for this compound: CC(C)(O)CC[C@@H](O)[C@](C)(O)[C@H]1CC[C@@]2(O)[C@@H]3CC(=O)[C@@H]4C[C@@H](O)[C@@H](O)C[C@]4(C)[C@H]3CC[C@]12C [BR6]
2.8

###

Test system: rice
test summary: Low temperature assay on rice seedlings
Assay type: in vivo
measurement conditions: 1 mg/l, 1 °C, 3 days
# reported Weight of root; entries follow
Express the result in g but write the number alone.

compound | target system | Weight of root [g]
CC(C)(O)CC[C@@H](O)[C@](C)(O)[C@H]1CC[C@@]2(O)[C@@H]3CC(=O)[C@@H]4C[C@@H](O)[C@@H](O)C[C@]4(C)[C@H]3CC[C@]12C | rice | 2.8
CC[C@@H](C(C)C)[C@@H](O)[C@H](O)[C@@H](C)[C@H]1CCC2C3COC(=O)C4C[C@H](O)[C@H](O)C[C@]4(C)C3CC[C@@]21C (stereo partly drawn) | rice | 2.6
CC(C)[C@H](C)[C@@H](O)[C@H](O)[C@@H](C)[C@H]1CCC2C3CC(=O)C4C[C@H](O)CC[C@]4(C)C3CC[C@@]21C (stereo partly drawn) | rice | 2.6

Please respond with reported Weight of root (system rice) for CC(C)[C@H](C)[C@@H](O)[C@H](O)[C@@H](C)[C@H]1CCC2C3COC(=O)C4C[C@H](O)[C@H](O)C[C@]4(C)C3CC[C@@]21C (stereo partly drawn) .
2.8

Please respond with reported Weight of root (system rice) for CC(C)C[C@@H](O)[C@H](O)[C@@H](C)[C@H]1CCC2C3CC(=O)C4C[C@H](O)[C@H](O)C[C@]4(C)C3CC[C@@]21C (stereo partly drawn) .
2.6

Please respond with reported Weight of root (system rice) for C=C(C(C)C)[C@@H](O)[C@H](O)[C@@H](C)[C@H]1CCC2C3COC(=O)C4C[C@H](O)[C@H](O)C[C@]4(C)C3CC[C@@]21C (stereo partly drawn) .
2.6

###

Test system: rice
test summary: Low temperature assay on rice seedlings
Assay type: in vivo
measurement conditions: 0.01 mg/l, 4 °C, 12 days
# reported Number of leaf; entries follow
Field format: numeric only.

molecule | Number of leaf
C=C(C(C)C)[C@@H](O)[C@H](O)[C@@H](C)[C@H]1CCC2C3COC(=O)C4C[C@H](O)[C@H](O)C[C@]4(C)C3CC[C@@]21C (stereo partly drawn) | 3

State its Number of leaf for this molecule: CC(C)(O)CC[C@@H](O)[C@](C)(O)[C@H]1CC[C@@]2(O)[C@@H]3CC(=O)[C@@H]4C[C@@H](O)[C@@H](O)C[C@]4(C)[C@H]3CC[C@]12C
3

State its Number of leaf for this molecule: CC(C)C[C@@H](O)[C@H](O)[C@@H](C)[C@H]1CCC2C3CC(=O)C4C[C@H](O)[C@H](O)C[C@]4(C)C3CC[C@@]21C (stereo partly drawn)
3

State its Number of leaf for this molecule: CC(C)[C@H](C)[C@@H](O)[C@H](O)[C@@H](C)[C@H]1CCC2C3COC(=O)C4C[C@H](O)[C@H](O)C[C@]4(C)C3CC[C@@]21C (stereo partly drawn)
3

State its Number of leaf for this molecule: CC[C@@H](C(C)C)[C@@H](O)[C@H](O)[C@@H](C)[C@H]1CCC2C3COC(=O)C4C[C@H](O)[C@H](O)C[C@]4(C)C3CC[C@@]21C (stereo partly drawn)
3

State its Number of leaf for this molecule: CC(C)[C@H](C)[C@@H](O)[C@H](O)[C@@H](C)[C@H]1CCC2C3CC(=O)C4C[C@H](O)CC[C@]4(C)C3CC[C@@]21C (stereo partly drawn)
3

###

Test system: rice
test summary: Low temperature assay on rice seedlings
Assay type: in vivo
measurement conditions: 0.1 mg/l, 3 °C, 12 days
# reported Area of leaf; entries follow
Express the result in cm^2 but write the number alone.

The following compounds have reported results that may help.
compound | result unit | Area of leaf
CC(C)[C@H](C)[C@@H](O)[C@H](O)[C@@H](C)[C@H]1CCC2C3COC(=O)C4C[C@H](O)[C@H](O)C[C@]4(C)C3CC[C@@]21C (stereo partly drawn) | cm^2 | 13.4
C=C(C(C)C)[C@@H](O)[C@H](O)[C@@H](C)[C@H]1CCC2C3COC(=O)C4C[C@H](O)[C@H](O)C[C@]4(C)C3CC[C@@]21C (stereo partly drawn) | cm^2 | 13.4

State its Area of leaf for this compound: CC(C)[C@H](C)[C@@H](O)[C@H](O)[C@@H](C)[C@H]1CCC2C3CC(=O)C4C[C@H](O)CC[C@]4(C)C3CC[C@@]21C (stereo partly drawn)
13.4

State its Area of leaf for this compound: CC(C)C[C@@H](O)[C@H](O)[C@@H](C)[C@H]1CCC2C3CC(=O)C4C[C@H](O)[C@H](O)C[C@]4(C)C3CC[C@@]21C (stereo partly drawn)
13.4

State its Area of leaf for this compound: CC(C)(O)CC[C@@H](O)[C@](C)(O)[C@H]1CC[C@@]2(O)[C@@H]3CC(=O)[C@@H]4C[C@@H](O)[C@@H](O)C[C@]4(C)[C@H]3CC[C@]12C
13.2

State its Area of leaf for this compound: CC[C@@H](C(C)C)[C@@H](O)[C@H](O)[C@@H](C)[C@H]1CCC2C3COC(=O)C4C[C@H](O)[C@H](O)C[C@]4(C)C3CC[C@@]21C (stereo partly drawn)
13.4

###

Test system: rice
test summary: Low temperature assay on rice seedlings
Format: in vivo
measurement conditions: 1 mg/l, 4 °C, 9 days
Description: According to a low temperature assay, we measured parameters including plant height, number of leaf, area of leaf, number of tiller, weight of root at low temperature to completely determine effects of the natural brassinolide analogues on the resistance to low temperature of a plant. The natural brassinolide analogues, BR1, BR2, BR3, BR4, BR5 and BR6, used herein, were those prepared by the method of Example 1. […]
# reported Area of leaf; entries follow

The following molecules have reported results that may help.
molecule | Area of leaf
CC(C)C[C@@H](O)[C@H](O)[C@@H](C)[C@H]1CCC2C3CC(=O)C4C[C@H](O)[C@H](O)C[C@]4(C)C3CC[C@@]21C (stereo partly drawn) | 13.2 cm^2
CC(C)[C@H](C)[C@@H](O)[C@H](O)[C@@H](C)[C@H]1CCC2C3CC(=O)C4C[C@H](O)CC[C@]4(C)C3CC[C@@]21C (stereo partly drawn) | 13.2 cm^2
CC(C)(O)CC[C@@H](O)[C@](C)(O)[C@H]1CC[C@@]2(O)[C@@H]3CC(=O)[C@@H]4C[C@@H](O)[C@@H](O)C[C@]4(C)[C@H]3CC[C@]12C | 13.4 cm^2
CC[C@@H](C(C)C)[C@@H](O)[C@H](O)[C@@H](C)[C@H]1CCC2C3COC(=O)C4C[C@H](O)[C@H](O)C[C@]4(C)C3CC[C@@]21C (stereo partly drawn) | 13.2 cm^2
CC(C)[C@H](C)[C@@H](O)[C@H](O)[C@@H](C)[C@H]1CCC2C3COC(=O)C4C[C@H](O)[C@H](O)C[C@]4(C)C3CC[C@@]21C (stereo partly drawn) | 13.7 cm^2

Now look at this entry.
State its Area of leaf for this molecule: C=C(C(C)C)[C@@H](O)[C@H](O)[C@@H](C)[C@H]1CCC2C3COC(=O)C4C[C@H](O)[C@H](O)C[C@]4(C)C3CC[C@@]21C (stereo partly drawn)
13.2 cm^2
